experiment: Binding affinity to mouse brain tubulin assessed as dissociation constant by SPR analysis
readout: Kd (µM)
Give the quantity in µM, number only.

Please fill in: Kd reported for O=[N+]([O-])CCc1cccc2ccccc12 = 80.9
